Assay: Tumor exposure of Conjugate 1 and SN-38 in H1975 mouse xenograft model at 24 h
Assay type: in vivo
Measurement Setup: mouse, in vivo, 50 mg/kg
Metric Name: concentration at 24 h
Give the value; after it, write the unit.

query: Entry CCc1c2c(nc3ccc(OC(=O)N4CCC(CCn5ccc6cc(-n7c(O)nnc7-c7cc(C(C)C)c(O)cc7O)ccc65)CC4)cc13)-c1cc3c(c(=O)n1C2)COC(=O)[C@]3(O)CC [Conjugate 1] has what concentration at 24 h?
result: 163 nM

###

Assay: Tumor exposure of Conjugate 1 and SN-38 in H1975 mouse xenograft model at 24 h
Assay type: in vivo
Measurement Setup: mouse, in vivo, 150 mg/kg
Metric Name: concentration at 24 h (µM)
Answer in µM, number only, no unit symbol.

query: Reported concentration at 24 h, compound CCc1c2c(nc3ccc(OC(=O)N4CCC(CCn5ccc6cc(-n7c(O)nnc7-c7cc(C(C)C)c(O)cc7O)ccc65)CC4)cc13)-c1cc3c(c(=O)n1C2)COC(=O)[C@]3(O)CC [Conjugate 1] : ____
result: 4.99
